test system: RARg:RXRa (NR concentration 270 nM, RXRa partner concentration 90 nM); assay: PBM binding z-score (relative to random genomic background probes); higher = stronger binding; sequences stand for … in GC…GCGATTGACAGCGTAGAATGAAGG
The threshold is inclusive: PBM binding z-score of exactly 2 counts as rule met; values below receive rule not met.

ATATGTAGGTTATCGGGTCATCCAGTTTGCGCAT: rule met
CTCGAAATGTCGTGCTCAGGTGAGTATACCAAAC: rule not met
ACTATTAGTTGACTTAAGGCAACCGATACGACGC: rule not met
TCTGCTAGGTCAGTTGGTCAGCAAACGAGCTGCC: rule met

Qu. Item `AGAATGAGCTTACCAAAGATCAGGGAAACGCTTG` with PBM binding z-score of 2 or above?
Ans. rule not met

Qu. Item `CGTCCAAGGTCATAGGAAGTCAGTGAAGACAGAT` with PBM binding z-score of 2 or above?
Ans. rule met

###

test system: PPARg:RXRa 90nM:30nM, anti-RXR (NR concentration 90 nM, RXRa partner concentration 30 nM); assay: PBM binding z-score (relative to random genomic background probes); higher = stronger binding; sequences stand for … in GC…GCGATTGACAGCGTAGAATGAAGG
Definition: the class of an entry is the range in b0 (below 1), b1 (1 to below 3), b2 (3 or more) that contains its PBM binding z-score.

// below: answered sequences
AATACAGGGTCATCGTAGGCCAGAGCACGCACAG: b2
ATCGAAAGGTCGTGAGGTGAATATACAGAAAGGC: b2
GCGACTGGGGCACAGCAGGTTACCATAAGGTTGG: b0

Qu. Which category does the recorded PBM binding z-score put `TCTAGTTGGTCCAAGGTCACACACTCGAAATGCG` in?
Ans. b2

Qu. Which category does the recorded PBM binding z-score put `GCTTGGAGGACAAGGTCAGAGCTTTGTCCGTAGA` in?
Ans. b1

Qu. Which category does the recorded PBM binding z-score put `TGAGACAGGTGAAGGTAACTCAGGTACGCAGTCG` in?
Ans. b0

Qu. Which category does the recorded PBM binding z-score put `CATTACGGGTCACTGACAGGTTATAGCATTTGGA` in?
Ans. b2

Qu. Which category does the recorded PBM binding z-score put `AGAATGAGGTTAGACGTAGATCAGGGAAGAAAGT` in?
Ans. b0

###

Item-by-item account of PBM binding z-score
tested on: LXRa:RXRa (NR concentration 270 nM, RXRa partner concentration 90 nM); test: PBM binding z-score (relative to random genomic background probes); higher = stronger binding; sequences stand for … in GC…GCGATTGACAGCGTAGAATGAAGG
Keep it simple and answer with nothing but the number.

Solved entries (count: 10):
TCTCGGAGGCCACGAAGGTCAGAGCTTTCCAGAG: 1.34
CCGACTGGGGCAAGCTTACCATAACGCACAGCCA: -0.683
ATATGTAGGTTACATCCGGGTCATTCCGGCTATG: 4.16
CAAACTAGGTCACAGAGGTCAAAGGCCGTGCGTA: 6.33
CCTACTGGACCATCAGGTCATTGATATCAACGTT: 1.86
TCTATTAGTTGAATAGGGCAACCGAAACAGCGGA: 0.654
TATCCTAGGTCATTCAGGGGCCAGTATAGAAAGC: 5.67
ACTAGCCGGCCAAGTTTGGGTCACTCAAACAAAG: 0.194
TGTCAAAGTTCCAAGGTAACGTAAGTATCCACAC: 0.139
CCTACTGGGCCATCAGGTCACTGATATCAACGTT: 0.856

Qu. I have this sequence here, `TCATATAGGTCATACAGGTGAAAGTCGGCATCTA` , and I need its recorded PBM binding z-score.
Ans. 5.45

Qu. I have this sequence here, `TTACCAAGGTGAGCTGAGGTCGATGATCCAACTC` , and I need its recorded PBM binding z-score.
Ans. 0.545

Qu. I have this sequence here, `TCTGCTAGGTCAACGATGGTCAGATAATCTGCTA` , and I need its recorded PBM binding z-score.
Ans. 2.85

Qu. I have this sequence here, `GATACAGCGTCAGCTAGAGGCCAGAGTATGGAAA` , and I need its recorded PBM binding z-score.
Ans. -0.907

Qu. I have this sequence here, `CGAACTAGGTCAGAATAGGACAGTGAAGGATGAT` , and I need its recorded PBM binding z-score.
Ans. 0.992

Qu. I have this sequence here, `AGAACGAGGGCAATGAGTTGATCGCACGGGTGGC` , and I need its recorded PBM binding z-score.
Ans. 0.0988

Qu. I have this sequence here, `CCTCAAAGTTCAACTAAGGTAACGTAAAGCACGC` , and I need its recorded PBM binding z-score.
Ans. 6.33

Qu. I have this sequence here, `TCTGGTTGGTCACGGAGGTCACACACGACGGGTA` , and I need its recorded PBM binding z-score.
Ans. 3.63

Qu. I have this sequence here, `CCTTCTAGGTCATGGTCAGCTAATCTACAGTATG` , and I need its recorded PBM binding z-score.
Ans. 2.77

Qu. I have this sequence here, `CCTTACGGATCACTCCAGGTTATAGCATCGGAGT` , and I need its recorded PBM binding z-score.
Ans. 3.48

Qu. I have this sequence here, `ATCGAAAGGTCGACGGTGAGTATACCCACCCGAA` , and I need its recorded PBM binding z-score.
Ans. 3.44

Qu. I have this sequence here, `CGTCCAATGTCATAGGAGGTCAGTGAAGACAGAT` , and I need its recorded PBM binding z-score.
Ans. 4.74

Qu. I have this sequence here, `CAAACTAGGTCAAAGGTCAATGTCGAGCCAACCA` , and I need its recorded PBM binding z-score.
Ans. 7.09

###

test system: VDR:RXRa (NR concentration 270 nM, RXRa partner concentration 90 nM); assay: PBM binding z-score (relative to random genomic background probes); higher = stronger binding; sequences stand for … in GC…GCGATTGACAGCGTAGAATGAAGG
Item-by-item account of PBM binding z-score
Keep it simple and answer with nothing but the number.

Solved entries (count: 5):
AGTCAAAGTTCATCTAGGTGACGTAAGATATGCT: 4.96
CGAACTAGGTCATTGACAGTACAGTGAATAGTAA: 2.57
TGAATGAGGTTATAATATCAGGGAACGTTGCAAA: 1.35
TCTATTAGTTGATTAGGGCAACCGTAACAGCGGA: 0.769
CGTCCAAGCTCAATGCTAGGTCAGTGAAAGCATT: -0.0498

Shifting focus to the sequence that follows.
Qu. I have this sequence here, `CCTACTGGGCCAGAGGTCATTGATTCCAATGCTC` , and I need its recorded PBM binding z-score.
Ans. 4.47

###

tested on: RXRa homodimer (NR concentration 180 nM); assay: PBM binding z-score (relative to random genomic background probes); higher = stronger binding; sequences stand for … in GC…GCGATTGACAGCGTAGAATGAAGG
The threshold is inclusive: PBM binding z-score of exactly 1 counts as yes; values below receive no.

// below: answered sequences
ATCTCTCGGTAAAGATAGTTCAGTGAATGCAAAT: no
CCTCGGAGGACAGAAGGTCATAGCTGTCCGCTTT: yes
CTCGAAAGGTCGTGCTCAGGTGAGGATACCAAAC: yes
TCTTGTAGACCAAGCAGGTTAAGAAAGCCTGAGT: no
ATCTCTAGGTTACCAAGTTCAGTGAATGCCGAAC: yes

Qu. Item `ATACCAAGGTGATCGTGAGGTTGTTGATACTAAC` with PBM binding z-score of 1 or above?
Ans. no

Qu. Item `CTCGAAAGGTCGCGCTCAGGTGAGTATACCAAAC` with PBM binding z-score of 1 or above?
Ans. yes

Qu. Item `CATACAGGGTCAGCTAGGACAGAGTAGGGACGGC` with PBM binding z-score of 1 or above?
Ans. yes

Qu. Item `ACTATTAGTTGAGACGAGGGCAATCGATAGGTTG` with PBM binding z-score of 1 or above?
Ans. no

Qu. Item `GCTCGGAGGAGAAGGTCAGAGCTTTGTCCGTAGA` with PBM binding z-score of 1 or above?
Ans. yes

Qu. Item `TCAAGTTGGTCAAAGGTCACACACTCGAAATGCG` with PBM binding z-score of 1 or above?
Ans. yes

###

system: LXRb:RXRa (NR concentration 270 nM, RXRa partner concentration 90 nM); test: PBM binding z-score (relative to random genomic background probes); higher = stronger binding; sequences stand for … in GC…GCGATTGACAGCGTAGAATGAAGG
endpoint name: PBM binding z-score
Keep it simple and answer with nothing but the number.

Solved entries (count: 5):
CCTACTGGGCCAAATAGGTCATTGATGCCGATAA: 1.91
GCGACTGGGGCAAAGCAGGTTACCAGAAGGTTGG: 0.0356
CGTCAAAGTTCAAGGTAACGTATCAGAAAGCAGC: 3.2
TCTTGTAGATCAGCAGGTCAAGAAAGCTGGCCAA: 1.59
ATCTCTAGGTAAAGATAGTTCAGTGACTGCAAAT: 0.867

Qu. I have this sequence here, `TGAATGAGGTTATAGGATCAGGGAACGTTGCAAA` , and I need its recorded PBM binding z-score.
Ans. 1.39

Qu. I have this sequence here, `ATCTCTAGCTAAGACTCAGTTCAGTGAAGAACGC` , and I need its recorded PBM binding z-score.
Ans. -0.057
